# assayed-target: TfIMPDH (Tritrichomonas foetus, UniProt P50097)
# Sequence (P50097 whole entry): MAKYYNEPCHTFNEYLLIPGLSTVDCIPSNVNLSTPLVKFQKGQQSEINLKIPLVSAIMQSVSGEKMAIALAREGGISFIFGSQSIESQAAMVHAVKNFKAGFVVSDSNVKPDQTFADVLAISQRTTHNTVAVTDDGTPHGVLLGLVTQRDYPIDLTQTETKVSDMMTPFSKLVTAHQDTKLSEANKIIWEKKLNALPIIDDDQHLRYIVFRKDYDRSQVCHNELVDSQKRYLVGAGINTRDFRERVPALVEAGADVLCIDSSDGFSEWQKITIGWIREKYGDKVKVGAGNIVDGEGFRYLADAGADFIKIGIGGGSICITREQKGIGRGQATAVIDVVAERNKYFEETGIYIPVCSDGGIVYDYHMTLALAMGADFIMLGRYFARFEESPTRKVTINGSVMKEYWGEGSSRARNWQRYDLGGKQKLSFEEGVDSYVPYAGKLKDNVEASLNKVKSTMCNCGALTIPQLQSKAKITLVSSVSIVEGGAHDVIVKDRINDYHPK
# method-summary: biochemical
# Format: biochemical
# test-conditions: read-out: Kis, OxMP; versus IMP, competitive; NAD+ 500 μM
parameter: pKi
pKi (log units): -log10 of the concentration in mol/L.

For record Nc1nc2c(ncn2[C@@H]2O[C@H](COP(=O)(O)O)[C@@H](O)[C@H]2O)c(=O)o1 [OxMP, oxanosine monophosphate] the listed pKi is 6.77

* * *

# assayed-target: CjIMPDH (Campylobacter jejuni)
# method-summary: biochemical
# Assay type: biochemical
parameter: pKi
pKi (log units): -log10 of the concentration in mol/L.

For record Nc1nc2c(ncn2[C@@H]2O[C@H](COP(=O)(O)O)[C@@H](O)[C@H]2O)c(=O)[nH]1 [GMP, guanosine 5’-monophosphate, reference compound] the listed pKi is 5.10

* * *

# assayed-target: CjIMPDH (Campylobacter jejuni, UniProt Q0P9J4)
# method-summary: biochemical
# Assay type: biochemical
# test-conditions: read-out: Kis, OxMP; versus IMP, competitive; NAD+ 500 μM
parameter: Ki (nM)
Provide the reading as a plain figure in nM.

Log: CjIMPDH (Campylobacter jejuni, UniProt Q0P9J4), compound Nc1nc2c(ncn2[C@@H]2O[C@H](COP(=O)(O)O)[C@@H](O)[C@H]2O)c(=O)o1 [OxMP, oxanosine monophosphate] , Ki = 51

* * *

# assayed-target: human IMPDH2 (Homo sapiens, UniProt P12268)
# method-summary: IMPDH steady-state kinetics and inhibition
# Assay type: biochemical
# test-conditions: read-out: Kis, OxMP; versus IMP, competitive; NAD+ 500 μM
parameter: Ki
Report field: quantity (unit follows the number).

For record Nc1nc2c(ncn2[C@@H]2O[C@H](COP(=O)(O)O)[C@@H](O)[C@H]2O)c(=O)o1 [OxMP, oxanosine monophosphate] the listed Ki is 130 nM

* * *

# assayed-target: BaIMPDH (Bacillus anthracis, UniProt A0A6L8P2U9)
# Sequence (A0A6L8P2U9 1-487): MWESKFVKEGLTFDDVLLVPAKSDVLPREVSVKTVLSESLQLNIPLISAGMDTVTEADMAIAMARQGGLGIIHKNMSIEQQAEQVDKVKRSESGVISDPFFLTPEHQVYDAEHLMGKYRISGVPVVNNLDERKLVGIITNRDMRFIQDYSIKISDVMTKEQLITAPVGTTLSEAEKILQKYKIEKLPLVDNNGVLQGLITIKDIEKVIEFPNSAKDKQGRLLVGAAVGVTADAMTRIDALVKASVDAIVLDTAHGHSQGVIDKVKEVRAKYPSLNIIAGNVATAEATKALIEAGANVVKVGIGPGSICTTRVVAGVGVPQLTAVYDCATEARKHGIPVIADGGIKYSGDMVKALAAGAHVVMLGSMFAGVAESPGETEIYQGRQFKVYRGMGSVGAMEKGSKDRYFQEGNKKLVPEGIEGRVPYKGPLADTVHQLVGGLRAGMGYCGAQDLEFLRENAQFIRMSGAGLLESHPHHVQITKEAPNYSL
# method-summary: biochemical
# Format: biochemical
# test-conditions: read-out: Kis, OxMP
parameter: Ki (nM)
Provide the reading as a plain figure in nM.

Log: BaIMPDH (Bacillus anthracis, UniProt A0A6L8P2U9), molecule Nc1nc2c(ncn2[C@@H]2O[C@H](COP(=O)(O)O)[C@@H](O)[C@H]2O)c(=O)o1 [OxMP, oxanosine monophosphate] , Ki = 340

* * *

# assayed-target: BaIMPDH (Bacillus anthracis, UniProt A0A6L8P2U9)
# method-summary: biochemical
# Format: biochemical
parameter: Ki (µM)
Provide the reading as a plain figure in µM.

For record Nc1nc2c(ncn2[C@@H]2O[C@H](COP(=O)(O)O)[C@@H](O)[C@H]2O)c(=O)[nH]1 [GMP, guanosine 5’-monophosphate, reference compound] the listed Ki is 115
